- Target Or Test System: Solute carrier organic anion transporter family member 1B1 (Homo sapiens, UniProt Q9Y6L6)
- Sequence (Q9Y6L6 whole entry): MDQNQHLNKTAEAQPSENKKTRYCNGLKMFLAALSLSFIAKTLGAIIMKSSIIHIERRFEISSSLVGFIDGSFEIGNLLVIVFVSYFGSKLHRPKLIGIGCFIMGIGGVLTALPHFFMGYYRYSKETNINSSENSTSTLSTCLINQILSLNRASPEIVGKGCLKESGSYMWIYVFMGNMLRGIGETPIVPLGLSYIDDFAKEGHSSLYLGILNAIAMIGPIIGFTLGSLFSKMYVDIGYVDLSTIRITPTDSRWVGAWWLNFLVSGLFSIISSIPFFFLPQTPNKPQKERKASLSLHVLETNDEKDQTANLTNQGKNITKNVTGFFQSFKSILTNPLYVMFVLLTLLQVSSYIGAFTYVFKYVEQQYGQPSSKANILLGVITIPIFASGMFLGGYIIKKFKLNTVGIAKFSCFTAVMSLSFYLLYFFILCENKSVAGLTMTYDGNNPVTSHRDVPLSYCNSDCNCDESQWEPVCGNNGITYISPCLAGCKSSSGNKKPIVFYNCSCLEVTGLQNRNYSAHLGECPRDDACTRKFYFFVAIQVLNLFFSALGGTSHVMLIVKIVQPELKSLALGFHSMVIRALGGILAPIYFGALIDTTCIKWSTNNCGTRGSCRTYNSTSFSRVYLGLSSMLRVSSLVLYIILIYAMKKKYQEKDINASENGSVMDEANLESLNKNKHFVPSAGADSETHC
- Test Description: TP_TRANSPORTER: inhibition of E217betaG uptake in OATP-C-expressing HEK293 cells
- Assay type: functional, cell-based
Experimental Readout: pKi
The scale used: pKi is minus the common logarithm of the concentration in molar units.

Q: Which pKi value belongs to O=C1OC(c2ccc(O)c(S(=O)(=O)O)c2)(c2ccc(O)c(S(=O)(=O)O)c2)c2c(Br)c(Br)c(Br)c(Br)c21 [SULFOBROMOPHTHALEIN SODIUM] ?
Result: 7.36

###

- Target Or Test System: OATP-C (OATP1B1, SLCO1B1) (Homo sapiens)
- Test Description: TP_TRANSPORTER: inhibition of E217betaG uptake (DIDS: 50 uM, E217betaG: 1 uM) in OATP-C-expressing HEK293 cells
- Format: functional, cell-based
- Parameters: scale not given: the % may be the effect or the level left
- Run Parameters: probe E217betaG (estradiol 17beta-glucuronide), read-out: Activity
Experimental Readout: activity at 50 µM (%)
Provide the reading as a plain figure in %.

Q: Please give the measured activity at 50 µM for this compound: `O=S(=O)(O)c1cc(N=C=S)ccc1/C=C/c1ccc(NC=S)cc1S(=O)(=O)O`
Result: 6
